# Test Protocol: Example 9: single-dose study in healthy human subjects 30-75 mg/kg and 20 mg/kg x 2 (PK)
# Format: in vivo
# Test Context: human, plasma; single oral dose 60 mg/kg; read-out: t1/2 (converted)
Property Label: half-life (h)
Numbers only, in h.

Specify half-life for COCCOCCOCCOc1cccc(C2=N[C@@](C)(C(=O)O)CS2)c1O and stop.
11

###

# Test Protocol: Example 7: high single doses in healthy human subjects (PK)
# Assay type: in vivo
# Test Context: both sexes, human, plasma; single oral dose 60 mg/kg, fasted
Property Label: AUC(0-inf)

Indicate its recorded AUC(0-inf); the compound in question is COCCOCCOCCOc1cccc(C2=N[C@@](C)(C(=O)O)CS2)c1O
227 µg·h/mL

###

# Test Protocol: Example 9: single-dose study in healthy human subjects 30-75 mg/kg and 20 mg/kg x 2 (PK)
# Assay type: in vivo
# Test Context: human, plasma; single oral dose 60 mg/kg
Property Label: AUC(0-inf) (µg·h/mL)
One number for each entry, in µg·h/mL.

Identify AUC(0-inf) associated with the compound COCCOCCOCCOc1cccc(C2=N[C@@](C)(C(=O)O)CS2)c1O
205

###

# Test Protocol: Example 8: single-dose study in healthy human subjects 3-16 mg/kg (PK)
# Assay type: in vivo
# Test Context: male, human, plasma; single oral dose 6 mg/kg; mean
# Protocol: Example 8 was a double-blind, placebo-controlled single dose-escalating study in healthy subjects. […] The objectives of this study were to assess the safety, tolerability, and pharmacokinetics of ascending single doses of Compound 1 compared to placebo. Additionally, dose proportionality and pharmacodynamics of Compound 1 were assessed. Four doses of Compound 1 (3, 6, 10, and 16 mg/kg), in capsule form, were evaluated in this study. […]
Property Label: AUC(0-inf) (ng·h/mL)
Numbers only, in ng·h/mL.

Read the entry COCCOCCOCCOc1cccc(C2=N[C@@](C)(C(=O)O)CS2)c1O and write its reported AUC(0-inf).
26600

###

# Test Protocol: Example 6: multiple-dose study in iron-overloaded human subjects (PK)
# Format: in vivo
# Test Context: both sexes, human, plasma; 32 mg/kg/day, 7 days oral; N = 2; read-out: T1/2 (converted)
Property Label: half-life
The number alone won't do; follow it with the unit.

Note half-life for the molecule shown: COCCOCCOCCOc1cccc(C2=N[C@@](C)(C(=O)O)CS2)c1O [Compound 1]
18.7 h

###

# Test Protocol: Example 9: single-dose study in healthy human subjects 30-75 mg/kg and 20 mg/kg x 2 (PK)
# Assay type: in vivo
# Test Context: human, plasma, oral; 20 mg/kg × 2; calculated with total dose of 40 mg/kg; read-out: VZ/F
Property Label: Vd/F (L)
Give bare numbers, in L.

For the molecule COCCOCCOCCOc1cccc(C2=N[C@@](C)(C(=O)O)CS2)c1O [Compound 1] , give its measured Vd/F value.
208

###

# Test Protocol: Example 9: single-dose study in healthy human subjects 30-75 mg/kg and 20 mg/kg x 2 (PK)
# Type: in vivo
# Test Context: human, plasma; single oral dose 50 mg/kg; median; read-out: tmax
Property Label: Tmax (h)
Numbers only, in h.

Let me know recorded Tmax for COCCOCCOCCOc1cccc(C2=N[C@@](C)(C(=O)O)CS2)c1O , thanks.
1.5

###

# Test Protocol: Example 9: single-dose study in healthy human subjects 30-75 mg/kg and 20 mg/kg x 2 (PK)
# Type: in vivo
# Test Context: human, plasma; single oral dose 75 mg/kg
Property Label: AUC(0-inf) (µg·h/mL)
Answers are plain numbers, in µg·h/mL.

Identify measured AUC(0-inf) corresponding to COCCOCCOCCOc1cccc(C2=N[C@@](C)(C(=O)O)CS2)c1O [Compound 1]
247

###

# Test Protocol: Example 9: single-dose study in healthy human subjects 30-75 mg/kg and 20 mg/kg x 2 (PK)
# Format: in vivo
# Test Context: human, urine and plasma, oral; 20 mg/kg × 2 at 12-hour interval; read-out: CLr
Property Label: CL renal (mL/min)
Numbers only, in mL/min.

Query CL renal for COCCOCCOCCOc1cccc(C2=N[C@@](C)(C(=O)O)CS2)c1O
131

###

# Test Protocol: Example 6: multiple-dose study in iron-overloaded human subjects (PK)
# Format: in vivo
# Test Context: both sexes, human, plasma; 40 mg/kg/day, 7 days oral; N = 4
Property Label: Cmax (µg/mL)
Give bare numbers, in µg/mL.

Look up and report measured Cmax for this entry: COCCOCCOCCOc1cccc(C2=N[C@@](C)(C(=O)O)CS2)c1O [Compound 1]
68.6

###

# Test Protocol: Example 9: single-dose study in healthy human subjects 30-75 mg/kg and 20 mg/kg x 2 (PK)
# Format: in vivo
# Test Context: human, plasma; single oral dose 75 mg/kg; read-out: VZ/F
Property Label: Vd/F (L)
Give bare numbers, in L.

Determine its reported Vd/F: COCCOCCOCCOc1cccc(C2=N[C@@](C)(C(=O)O)CS2)c1O
342

###

# Test Protocol: Example 9: single-dose study in healthy human subjects 30-75 mg/kg and 20 mg/kg x 2 (PK)
# Format: in vivo
# Test Context: human, plasma, oral; 20 mg/kg × 2; for the total dose of 40 mg/kg
Property Label: AUC(0-t) (µg·h/mL)
Numbers only, in µg·h/mL.

Quickly give me recorded AUC(0-t) for COCCOCCOCCOc1cccc(C2=N[C@@](C)(C(=O)O)CS2)c1O
221

###

# Test Protocol: Example 8: single-dose study in healthy human subjects 3-16 mg/kg (PK)
# Type: in vivo
# Test Context: male, human, plasma; single oral dose 3 mg/kg; mean of 3 subjects
# Description: Example 8 was a double-blind, placebo-controlled single dose-escalating study in healthy subjects. […] The objectives of this study were to assess the safety, tolerability, and pharmacokinetics of ascending single doses of Compound 1 compared to placebo. Additionally, dose proportionality and pharmacodynamics of Compound 1 were assessed. Four doses of Compound 1 (3, 6, 10, and 16 mg/kg), in capsule form, were evaluated in this study. […]
Property Label: Cmax (ng/mL)
Answers are plain numbers, in ng/mL.

Quick one: give measured Cmax for COCCOCCOCCOc1cccc(C2=N[C@@](C)(C(=O)O)CS2)c1O [Compound 1]
5410

###

# Test Protocol: Example 4: seven-day dosing in iron-overloaded human subjects (PK, tolerability)
# Assay type: in vivo
# Test Context: human, plasma; 3 mg/kg daily 7 days oral; read-out: Vz/F
Property Label: Vd/F

Please look at this molecule and report its Vd/F: COCCOCCOCCOc1cccc(C2=N[C@@](C)(C(=O)O)CS2)c1O [Compound 1]
185 L

###

# Test Protocol: Example 7: high single doses in healthy human subjects (PK)
# Type: in vivo
# Test Context: both sexes, human, plasma; single oral dose 40 mg/kg, fasted; read-out: t½ (converted)
Property Label: half-life (h)
Numbers only, in h.

Tell me half-life reported for COCCOCCOCCOc1cccc(C2=N[C@@](C)(C(=O)O)CS2)c1O
18.6

###

# Test Protocol: Example 6: multiple-dose study in iron-overloaded human subjects (PK)
# Assay type: in vivo
# Test Context: both sexes, human, plasma; 16 mg/kg/day, 7 days oral; N = 4
Property Label: CL renal (mL/min)
Give bare numbers, in mL/min.

Quick one: give measured CL renal for COCCOCCOCCOc1cccc(C2=N[C@@](C)(C(=O)O)CS2)c1O [Compound 1]
83.2

###

# Test Protocol: Example 5: single-dose study in iron-overloaded human subjects (PK)
# Type: in vivo
# Test Context: human, plasma; single oral dose 32 mg/kg, subject 4
Property Label: AUC(0-inf) (µg·h/mL)
One number for each entry, in µg·h/mL.

Hello, please tell me recorded AUC(0-inf) for this one: COCCOCCOCCOc1cccc(C2=N[C@@](C)(C(=O)O)CS2)c1O [Compound 1]
159

###

# Test Protocol: Example 9: single-dose study in healthy human subjects 30-75 mg/kg and 20 mg/kg x 2 (PK)
# Format: in vivo
# Test Context: human, plasma, oral; 20 mg/kg × 2 at 12-hour interval; read-out: t1/2 (converted)
Property Label: half-life
Please don't drop the unit; write it after the number.

Tell us which half-life value is on record for COCCOCCOCCOc1cccc(C2=N[C@@](C)(C(=O)O)CS2)c1O
9.64 h

###

# Test Protocol: Example 4: seven-day dosing in iron-overloaded human subjects (PK, tolerability)
# Type: in vivo
# Test Context: human, plasma and urine; 3 mg/kg daily 7 days oral
Property Label: CL renal
For clarity, give the value followed by its unit.

Specify CL renal for COCCOCCOCCOc1cccc(C2=N[C@@](C)(C(=O)O)CS2)c1O and stop.
75.2 mL/min

###

# Test Protocol: Example 4: seven-day dosing in iron-overloaded human subjects (PK, tolerability)
# Format: in vivo
# Test Context: human, plasma; 32 mg/kg daily 7 days oral
Property Label: Cmax (µg/mL)
One number for each entry, in µg/mL.

Quick one: give measured Cmax for COCCOCCOCCOc1cccc(C2=N[C@@](C)(C(=O)O)CS2)c1O
60.2

Each recorded value in this set is attributed to patent US8993606B2.
